Values compiled from PubChem BioAssay (Tox21).

Target: 5-hydroxytryptamine receptor 2A (Homo sapiens) (UniProt P28223)
Sequence (P28223 whole entry, looked up): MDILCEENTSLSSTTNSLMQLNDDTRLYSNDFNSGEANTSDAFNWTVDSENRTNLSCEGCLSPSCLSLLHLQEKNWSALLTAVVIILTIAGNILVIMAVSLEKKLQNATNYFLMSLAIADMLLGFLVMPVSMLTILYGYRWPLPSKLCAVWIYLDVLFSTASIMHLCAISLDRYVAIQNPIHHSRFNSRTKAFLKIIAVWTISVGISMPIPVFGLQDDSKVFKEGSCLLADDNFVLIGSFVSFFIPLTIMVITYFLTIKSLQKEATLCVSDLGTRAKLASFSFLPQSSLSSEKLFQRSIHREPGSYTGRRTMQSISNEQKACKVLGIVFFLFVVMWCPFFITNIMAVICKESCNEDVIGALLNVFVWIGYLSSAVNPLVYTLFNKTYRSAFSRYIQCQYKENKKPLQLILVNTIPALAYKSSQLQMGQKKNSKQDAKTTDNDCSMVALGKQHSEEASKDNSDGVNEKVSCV
Experiment: 5-hydroxytryptamine receptor 2A (HTR2A) small molecule antagonists, cell-based qHTS assay (AID 1963586); also: nearly all actives have a fitted effect of over 45% in size
Conditions: HTR2A-CHO cells, DOI-induced calcium flux, fluorescence; series mostly up to 61.5 µM
Records with an inconclusive call do not appear. Activity calls are given as the source filed them. Calls follow the shape of the full dose curve.
Would you mind answering with one of these outcomes? true (active), false (inactive)

For this compound, state the assay outcome: O=S(=O)(O)c1ccc(Nc2nc(Nc3ccc(/C=C/c4ccc(Nc5nc(Nc6ccc(S(=O)(=O)O)cc6)nc(N(CCO)CCO)n5)cc4S(=O)(=O)O)c(S(=O)(=O)O)c3)nc(N(CCO)CCO)n2)cc1
false

What do we get for COc1ccc(S(=O)(=O)N2C(=O)[C@@](c3ccccc3OC)(N3C[C@H](O)C[C@H]3C(=O)N(C)C)c3cc(Cl)ccc32)c(OC)c1 ?
false

What do we get for Cc1c(O)cccc1O ?
false

What do we get for CCCCNCC ?
false

What do we get for COc1nccnc1CC(C)C ?
false

What do we get for CC(=O)OC/C=C(/C)CCC=C(C)C ?
false

What do we get for O=S1(=O)N=C(O)c2ccccc21 ?
false

What do we get for CC[C@H]1CC[C@H](NCc2cc3c(cc2OC)[C@H]2C[C@H]2C(=O)N3C)[C@H](c2ccccc2)N1 ?
false

What do we get for C=CCN1C[C@H](C(=O)N(CCCN(C)C)C(=O)NCC)C[C@@H]2c3cccc4[nH]cc(c34)C[C@H]21 ?
true

What do we get for CCC/C=C(\C=O)CC ?
false

What do we get for CCCC/C=C/C=C\C=O ?
false

What do we get for C=Cc1ccncc1 ?
false

====

Target: 5-hydroxytryptamine receptor 2A (Homo sapiens) (UniProt P28223)
Experiment: 5-hydroxytryptamine receptor 2A (HTR2A) small molecule agonists, cell-based qHTS assay (AID 1963587); also: % is scaled to controls: 0 for no effect and ±100 for the full control effect; nearly all actives have a fitted effect of over 30% in size
Details: HTR2A-CHO cells, calcium flux fluorescence, agonist mode; series mostly up to 76.8 µM
Results filed as inconclusive are left out. Activity calls are given as the source filed them. Calls follow the shape of the full dose curve.
Would you mind answering with one of these outcomes? Y for active, N for inactive

{"Compound": "Cc1ccc([N+](=O)[O-])cc1Cl", "Assigned Label": "N"}
{"Compound": "CC(C)(C)CC(C)(C)c1ccc(O)c(Cc2ccc(Cl)cc2Cl)c1", "Assigned Label": "N"}
{"Compound": "CC(=O)OCC(C)OC(C)=O (configuration not stated)", "Assigned Label": "N"}
{"Compound": "CC1CCCNC1 (configuration not stated)", "Assigned Label": "N"}
{"Compound": "CC1=C(C(=O)O)N2C(=O)[C@@H](NC(=O)[C@H](N)C3=CCC=CC3)[C@H]2SC1", "Assigned Label": "N"}

For this compound, state the assay outcome: O=C1c2ccccc2C(=O)c2c(O)c(O)cc(O)c21
N

What do we get for CC(C)(C)CCCCCCOC(=O)c1ccccc1C(=O)OCCCCCCC(C)(C)C ?
N

What do we get for COCCCOCCCOC ?
N

What do we get for O=Cc1ccccc1S(=O)(=O)O ?
N

What do we get for CC(=O)N(CC(O)CO)c1c(I)c(C(=O)NCCO)c(I)c(C(=O)NCC(O)CO)c1I (configuration not stated) ?
N

====

Experiment: Nuclear factor erythroid 2-related factor 2/antioxidant responsive element (Nrf2/ARE) small molecule agonists: luciferase reporter gene qHTS assay in human keratinocytes (AID 1919969); also: nearly all actives have a fitted effect of over 35% in size
Details: KeratinoSens HaCaT ARE-luciferase, luminescence, 24 h; series mostly up to 92.4 µM
Records with an inconclusive call do not appear. Active and inactive are the calls of the source. Calls come from the whole dose curve.
Would you mind answering with one of these outcomes? label 1 for active, label 0 for inactive

{"Compound": "COC(=O)NCCC[Si](OC)(OC)OC", "Assigned Label": "label 1"}
{"Compound": "CCn1nc(C(=O)O)c(=O)c2cc3c(cc21)OCO3", "Assigned Label": "label 0"}
{"Compound": "CC1(C)CC(O)CC(C)(C)N1[O]", "Assigned Label": "label 0"}
{"Compound": "O=C1NC(=O)c2cc([N+](=O)[O-])ccc21", "Assigned Label": "label 0"}
{"Compound": "CCCCN(CCC(=O)OCC)C(C)=O", "Assigned Label": "label 0"}

For this compound, state the assay outcome: COc1ccc(OC(F)(F)F)cc1CN[C@H]1CCCN[C@H]1c1ccccc1
label 0

What do we get for Nc1nc(Cl)nc2c1ncn2[C@H]1C[C@H](O)[C@@H](CO)O1 ?
label 0

What do we get for CC(C)(C)c1ccc(OC2CCCCC2O)cc1 (stereo not drawn) ?
label 1

What do we get for CC(C)c1ccc(O)c(C(C)C)c1 ?
label 1

What do we get for C=C1C(C)(C)[C@@]2(Cl)C(Cl)[C@]1(Cl)C(Cl)(Cl)C2(Cl)Cl (stereo partly drawn) ?
label 1

====

Target: D(2) dopamine receptor (Homo sapiens)
Experiment: Dopamine D2 receptor (DRD2) small molecule antagonists, cell-based qHTS assay (AID 1963595); also: % is scaled to controls: 0 for no effect and ±100 for the full control effect
Settings: HEK293-DRD2 cAMP HTRF antagonist mode; series mostly up to 92.4 µM
Records with an inconclusive call do not appear. Active and inactive are the calls of the source. The call rests on the fitted dose curve; in most records, active means well fitted inhibition curve with a large enough effect in the signal ratio in the repeat runs, with a control signal flat; inconclusive means weak or mixed curves, or effect the other way; inactive means flat fitted curve, though single readings scatter; the % refers to the signal ratio.
Would you mind answering with one of these outcomes? yes (active), no (inactive)

For this molecule, state the assay outcome: O=C(NO)c1ccccc1
no

====

Target: Beta-2 adrenergic receptor (Homo sapiens) (UniProt P07550)
Sequence (P07550 whole entry, looked up): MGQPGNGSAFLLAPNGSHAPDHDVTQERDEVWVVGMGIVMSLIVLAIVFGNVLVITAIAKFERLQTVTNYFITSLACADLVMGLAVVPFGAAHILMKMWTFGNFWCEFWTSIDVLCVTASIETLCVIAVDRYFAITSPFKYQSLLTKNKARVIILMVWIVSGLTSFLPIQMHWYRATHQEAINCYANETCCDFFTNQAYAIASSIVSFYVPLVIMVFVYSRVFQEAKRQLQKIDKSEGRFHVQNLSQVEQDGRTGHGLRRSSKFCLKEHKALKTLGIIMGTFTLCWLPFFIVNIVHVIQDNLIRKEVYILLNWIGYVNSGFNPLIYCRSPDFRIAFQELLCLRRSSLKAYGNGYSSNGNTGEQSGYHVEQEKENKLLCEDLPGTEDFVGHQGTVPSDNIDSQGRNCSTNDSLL
Assay: Adrenergic beta2 receptor (ADRB2) small molecule antagonists, cell-based qHTS assay (AID 1963592); also: nearly all actives have a fitted effect of over 50% in size
Settings: CHO-ADRB2 cells, isoproterenol-stimulated cAMP HTRF ratio, 0.5 h; series mostly up to 92.4 µM
Records with an inconclusive call do not appear. Activity calls are given as the source filed them. Calls follow the shape of the full dose curve.
Would you mind answering with one of these outcomes? T (active), F (inactive)

{"Compound": "CCCC[N+](C)(CCCC)CCCC", "Tested Target": "Beta-2 adrenergic receptor (Homo sapiens) (UniProt P07550)", "Assigned Label": "F"}
{"Compound": "Cc1ccc(-c2cc(C(F)(F)F)nn2-c2ccc(S(N)(=O)=O)cc2)cc1", "Tested Target": "Beta-2 adrenergic receptor (Homo sapiens) (UniProt P07550)", "Assigned Label": "T"}
{"Compound": "Cc1ccccc1C(=O)Nc1ccc(C(=O)N2CCCC(O)c3cc(Cl)ccc32)c(C)c1 (configuration not stated)", "Tested Target": "Beta-2 adrenergic receptor (Homo sapiens) (UniProt P07550)", "Assigned Label": "F"}
{"Compound": "OC(CCN1CCCCC1)(c1ccccc1)C1CC2C=CC1C2 (configuration not stated)", "Tested Target": "Beta-2 adrenergic receptor (Homo sapiens) (UniProt P07550)", "Assigned Label": "F"}
{"Compound": "CC(C)(C)CC(C)(C)N", "Tested Target": "Beta-2 adrenergic receptor (Homo sapiens) (UniProt P07550)", "Assigned Label": "F"}

For this compound, state the assay outcome: CC(Oc1c(Cl)cccc1Cl)C1=NCCN1 (configuration not stated)
F

What do we get for COc1ccc(/C=C/c2cc(OC)cc(=O)o2)cc1 ?
F

What do we get for CCc1c2c(nc3ccc(OC(=O)N4CCC(N5CCCCC5)CC4)cc13)-c1cc3c(c(=O)n1C2)COC(=O)[C@]3(O)CC ?
F

What do we get for CCCCCCCCCCl ?
F

What do we get for O=P(c1ccccc1)(c1ccccc1)c1ccccc1 ?
F

What do we get for CCOc1ccc(NC(N)=O)cc1 ?
F

What do we get for C=Cc1ccc(S(=O)(=O)O)cc1 ?
F

====

Assay: p53 small molecule agonists, cell-based qHTS assay with human liver microsomes: qHTS cell viability counter screen (AID 1963579); also: nearly all actives have a fitted effect of over 45% in size
Settings: p53RE-bla HCT-116 viability, ATP luminescence, 16 h, HLM; series mostly up to 66 µM
Records with an inconclusive call do not appear. Calls of active or inactive are those of the source. Calls follow the shape of the full dose curve.
Would you mind answering with one of these outcomes? 1.0 for active, 0.0 for inactive

Use these answered entries as a reference point.
{"Molecule": "[Cl][Bi]([Cl])([c]1ccccc1)([c]1ccccc1)[c]1ccccc1", "Assigned Label": 1.0}
{"Molecule": "C[C@]12C(=O)OC(=O)[C@H]1[C@H]1C=C[C@@H]2C1", "Assigned Label": 0.0}
{"Molecule": "Cc1cc(Nc2ccc(O)cc2)ccc1N", "Assigned Label": 0.0}
{"Molecule": "COC(=O)[C@H]1[C@H]2C[C@@H]3c4[nH]c5cc(OC)ccc5c4CCN3C[C@H]2C[C@@H](OC(=O)/C=C/c2ccc(O)c(OC)c2)[C@@H]1OC", "Assigned Label": 0.0}
{"Molecule": "O=C(OCC(COC(=O)c1cccnc1)(COC(=O)c1cccnc1)COC(=O)c1cccnc1)c1cccnc1", "Assigned Label": 0.0}
{"Molecule": "C[C@@H](c1ncncc1F)C(O)(Cn1cncn1)c1ccc(F)cc1F (stereo not given in full)", "Assigned Label": 0.0}
{"Molecule": "COc1cc([N+](=O)[O-])ccc1N", "Assigned Label": 0.0}
{"Molecule": "O=C(CC(=O)c1ccccc1)c1ccccc1", "Assigned Label": 0.0}

For this molecule, state the assay outcome: C[C@@H](NCCCc1cccc(C(F)(F)F)c1)c1cccc2ccccc12
0.0

What do we get for CCCCCC(C)OC(=O)COc1ccc(Cl)c2cccnc12 (stereo not given) ?
0.0
